system.under.test: recombinant METTL3/METTL14 complex (Homo sapiens)
Sequence (Q86U44 whole entry): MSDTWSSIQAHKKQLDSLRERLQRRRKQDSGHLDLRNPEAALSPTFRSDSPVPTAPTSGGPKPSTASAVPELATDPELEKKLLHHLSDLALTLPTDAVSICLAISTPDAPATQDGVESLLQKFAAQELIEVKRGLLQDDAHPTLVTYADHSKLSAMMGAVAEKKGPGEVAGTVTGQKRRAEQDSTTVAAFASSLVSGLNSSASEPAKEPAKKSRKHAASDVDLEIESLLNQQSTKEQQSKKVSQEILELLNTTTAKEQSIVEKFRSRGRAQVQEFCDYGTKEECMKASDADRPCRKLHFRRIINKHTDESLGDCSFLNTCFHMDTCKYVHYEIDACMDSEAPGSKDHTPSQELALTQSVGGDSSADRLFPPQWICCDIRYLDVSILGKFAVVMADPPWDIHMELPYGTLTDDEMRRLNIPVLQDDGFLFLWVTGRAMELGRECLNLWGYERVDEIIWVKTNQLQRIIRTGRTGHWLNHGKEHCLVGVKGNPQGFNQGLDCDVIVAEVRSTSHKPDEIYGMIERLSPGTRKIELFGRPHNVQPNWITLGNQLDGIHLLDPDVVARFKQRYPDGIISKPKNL
Sequence (Q9HCE5 whole entry partner): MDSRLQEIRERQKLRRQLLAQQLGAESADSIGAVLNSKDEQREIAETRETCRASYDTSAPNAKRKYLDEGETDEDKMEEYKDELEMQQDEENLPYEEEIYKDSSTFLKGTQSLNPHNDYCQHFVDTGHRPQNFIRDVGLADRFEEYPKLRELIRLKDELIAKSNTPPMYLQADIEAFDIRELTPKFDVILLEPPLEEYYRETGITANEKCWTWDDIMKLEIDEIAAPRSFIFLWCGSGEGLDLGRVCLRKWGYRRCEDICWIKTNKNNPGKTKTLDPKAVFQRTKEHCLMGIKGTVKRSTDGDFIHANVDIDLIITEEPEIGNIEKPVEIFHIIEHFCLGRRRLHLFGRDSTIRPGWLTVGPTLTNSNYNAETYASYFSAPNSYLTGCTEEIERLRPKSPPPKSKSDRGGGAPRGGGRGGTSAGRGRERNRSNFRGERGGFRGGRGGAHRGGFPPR
experiment: METTL3/14 Scintillation Proximity Assay (SPA), RNA methyltransferase activity
measurement.setup: 5.31 nM METTL3/14 complex, 250 nM RNA substrate, 1 μM 3H-SAM, 90 min; for compounds marked * best of the two separated forms
pIC50: −log10 of the molar value.
recorded.endpoint: pIC50

# annotated cases, reported pIC50 shown
CC(NC(=O)c1cc(=O)n2ccccc2n1)c1ccc(N2CCC[C@@H](NC3CCCC3)C2)cn1 (single isomer, unassigned) [Compound 117]: 6.30 to 7.30
CC(c1ccc(N2CCC[C@@H](NCC3CC3)C2)nn1)n1cnc(-c2cncc(N3CCCC3)n2)c1 (single isomer, unassigned) [Compound 340]: ≥ 7.30
COc1cnnc(-c2cn(Cc3ccc(N4CCC[C@@H](NCC5CCC5)C4)cn3)nn2)c1 [Compound 118]: ≥ 7.30
O=C(NCc1ccc(N2CCC[C@@H](NCC3CCC3)C2)cc1)c1cc(=O)n2ccccc2n1 [Compound 070]: ≥ 7.30
CC(n1cc(-c2cncc(N(C)CC(F)(F)F)c2)nn1)n1ccc(N2CCC[C@@H](NCC3CCC3)C2)cc1=O (single isomer, unassigned) [Compound 154]: ≥ 7.30

# pIC50 lookup, item CC(c1ccc(N2CCC[C@@H](NCC3CCC3)C2)nn1)n1cc(-c2cc(=O)n3cc(Cl)ccc3n2)nn1 (stereo partly drawn) [Compound 090]
≥ 7.30
